System: KRAS PDC multicell spheroid viability;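 further: drug exposure lasted seven days; 100% = DMSO vehicle wells and lower means fewer viable cells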
Experiment: Anticancer human tumor 521955-158-R6-J3-PDC patient-derived pancreatic carcinoma cell line growth inhibition [KRAS2]
Conditions: second compound 3.16 µM; first compound 0.01 µM; hits give low values
Let's look at some molecules and their measured viability, T/C.
# number only, unit % dropped from output

Below are worked cases with known answers.
CC(=O)Nc1cccc(-n2c(=O)n(C3CC3)c(=O)c3c(Nc4ccc(I)cc4F)n(C)c(=O)c(C)c32)c1 + COc1cc2nc(C)nc(NC(C)c3cc(N)cc(C(F)(F)F)c3)c2cc1OC1CCOC1; 45.5
CCN1CCN(Cc2ccc(Nc3ncc(F)c(-c4cc(F)c5nc(C)n(C(C)C)c5c4)n3)nc2)CC1 + C=CC(=O)N1CCN(c2nc(=O)n(-c3c(C)ccnc3C(C)C)c3nc(-c4c(O)cccc4F)c(F)cc23)C(C)C1; 89.4
Cn1ncnc1[C@H]1c2n[nH]c(=O)c3cc(F)cc(c23)N[C@@H]1c1ccc(F)cc1 + CC1OCC2(CCN(c3cnc(Sc4ccnc(N)c4Cl)c(N)n3)CC2)C1N; 106

Quick note, viability, T/C for CN(C)C/C=C/C(=O)Nc1cc2c(Nc3ccc(F)c(Cl)c3)ncnc2cc1O[C@H]1CCOC1 + C=CC(=O)N1CCN(c2nc(OCC3CCCN3C)nc3c2CCN(c2cccc4cccc(C)c24)C3)CC1CC#N landed at 12.7

Quick note, viability, T/C for Cn1ncnc1[C@H]1c2n[nH]c(=O)c3cc(F)cc(c23)N[C@@H]1c1ccc(F)cc1 + CNCc1ccccc1-c1csc(C(C)Nc2nc(C)nc3cc(OC)c(OC)cc23)c1 landed at 0.93

Quick note, viability, T/C for CN(C)C/C=C/C(=O)Nc1cc2c(Nc3ccc(F)c(Cl)c3)ncnc2cc1O[C@H]1CCOC1 + CC1OCC2(CCN(c3cnc(Sc4ccnc(N)c4Cl)c(N)n3)CC2)C1N landed at 124

Quick note, viability, T/C for CC(=O)Nc1cccc(-n2c(=O)n(C3CC3)c(=O)c3c(Nc4ccc(I)cc4F)n(C)c(=O)c(C)c32)c1 + CC1OCC2(CCN(c3cnc(Sc4ccnc(N)c4Cl)c(N)n3)CC2)C1N landed at 34.9

Quick note, viability, T/C for CN(C)C/C=C/C(=O)Nc1cc2c(Nc3ccc(F)c(Cl)c3)ncnc2cc1O[C@H]1CCOC1 + C=CC(=O)N1CCN(c2nc(=O)n(-c3c(C)ccnc3C(C)C)c3nc(-c4c(O)cccc4F)c(F)cc23)C(C)C1 landed at 79

Quick note, viability, T/C for CC1COCCN1c1cc(-c2ccnn2C)c2ccnc(-c3ccn[nH]3)c2n1 (stereo unspecified) + CC1OCC2(CCN(c3cnc(Sc4ccnc(N)c4Cl)c(N)n3)CC2)C1N landed at 102

Quick note, viability, T/C for CCN1CCN(Cc2ccc(Nc3ncc(F)c(-c4cc(F)c5nc(C)n(C(C)C)c5c4)n3)nc2)CC1 + CC1OCC2(CCN(c3cnc(Sc4ccnc(N)c4Cl)c(N)n3)CC2)C1N landed at 109

Quick note, viability, T/C for CC(=O)OC12COC1CC(O)C1(C)C(=O)C(O)C3=C(C)C(OC(=O)C(O)C(NC(=O)OC(C)(C)C)c4ccccc4)CC(O)(C(OC(=O)c4ccccc4)C21)C3(C)C (stereo unspecified) + CNCc1ccccc1-c1csc(C(C)Nc2nc(C)nc3cc(OC)c(OC)cc23)c1 landed at 0.42
